Target: human enzyme NAMPT (full length) (Homo sapiens)
Construct: human enzyme NAMPT (full length)
Sequence (P43490 whole entry): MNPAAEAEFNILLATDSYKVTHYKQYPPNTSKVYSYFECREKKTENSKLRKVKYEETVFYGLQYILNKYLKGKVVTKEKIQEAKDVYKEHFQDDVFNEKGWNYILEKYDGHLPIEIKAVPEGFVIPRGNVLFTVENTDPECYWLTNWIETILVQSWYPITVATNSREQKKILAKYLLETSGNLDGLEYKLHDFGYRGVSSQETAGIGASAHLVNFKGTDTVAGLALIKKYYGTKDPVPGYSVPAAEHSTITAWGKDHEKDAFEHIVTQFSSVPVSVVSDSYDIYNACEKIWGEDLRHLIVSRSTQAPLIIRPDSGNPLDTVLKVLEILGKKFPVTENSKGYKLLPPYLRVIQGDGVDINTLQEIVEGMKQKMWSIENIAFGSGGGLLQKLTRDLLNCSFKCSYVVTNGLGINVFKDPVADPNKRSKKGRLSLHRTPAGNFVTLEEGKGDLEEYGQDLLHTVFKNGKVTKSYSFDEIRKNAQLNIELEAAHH
Assay: NMN fluorescence biochemical assay (stimulation of NMN synthesis by NAMPT)
Settings: NMN synthesis by purified human NAMPT (100 nM); concentration giving half-maximal activation; read-out: Enzymatic EC50

molecule	target	EC50
O=C1c2cccc(Br)c2CN1Cc1ccc(O)cc1	human enzyme NAMPT (full length) (Homo sapiens)	500 to 5000 nM
CC1c2ccccc2C(=O)N1Cc1ccc(O)cc1 (centres unmarked)	human enzyme NAMPT (full length) (Homo sapiens)	500 to 5000 nM
Nc1nnc2cc(CN3C(=O)c4ccccc4C3Cc3ncccc3Br)ccn12 (centres unmarked)	human enzyme NAMPT (full length) (Homo sapiens)	≥ 5000 nM
O=C1c2ccccc2C(Cc2ncccc2Br)N1Cc1ccc2[nH]c(=O)oc2c1F (centres unmarked)	human enzyme NAMPT (full length) (Homo sapiens)	< 500 nM
O=C1c2ccccc2C(Cc2ccccc2OC(F)F)N1Cc1ccc2[nH]c(=O)oc2c1 (centres unmarked)	human enzyme NAMPT (full length) (Homo sapiens)	500 to 5000 nM
O=C1c2cc(Br)ccc2CN1Cc1ccc(O)cc1	human enzyme NAMPT (full length) (Homo sapiens)	≥ 5000 nM
NC(=O)Nc1ccc(CN2Cc3ccccc3C2=O)cc1	human enzyme NAMPT (full length) (Homo sapiens)	< 500 nM
CC1c2cc(NC3CC4(COC4)C3)ccc2C(=O)N1Cc1ccc2[nH]c(=O)oc2c1 (centres unmarked)	human enzyme NAMPT (full length) (Homo sapiens)	500 to 5000 nM
CC1c2ccccc2C(=O)N1Cc1ccc(NC(=O)NCc2cn[nH]c2)cc1 (centres unmarked)	human enzyme NAMPT (full length) (Homo sapiens)	< 500 nM
N#Cc1ccc(F)c(CC2c3ccccc3C(=O)N2Cc2ccc3[nH]c(=O)oc3c2)c1 (centres unmarked)	human enzyme NAMPT (full length) (Homo sapiens)	500 to 5000 nM
CC1c2ccccc2C(=O)N1Cc1ccc2[nH]c(=O)oc2c1 (centres unmarked)	human enzyme NAMPT (full length) (Homo sapiens)	≥ 5000 nM
